- test.details: Plasma pharmacokinetics of BMS-986142, SAD
- Assay type: in vivo
- setup.conditions: human, oral, SAD day 1, 300 mg, n = 6, read-out: Tmax median (min, max)
value.kind: Tmax

In plain terms, Cc1c(-c2c(F)cc(C(N)=O)c3[nH]c4c(c23)CC[C@H](C(C)(C)O)C4)cccc1-n1c(=O)c2cccc(F)c2n(C)c1=O has a documented Tmax of 1.02 h

* * *

- test.details: Plasma pharmacokinetics of BMS-986142, SAD
- Type: in vivo
- setup.conditions: human, oral, 900 mg, SAD day 1, 900 mg, n = 6, read-out: T1/2 mean (SD) (converted)
value.kind: half-life (h)
The answer is to be given in h; state only the numeric part.

In plain terms, Cc1c(-c2c(F)cc(C(N)=O)c3[nH]c4c(c23)CC[C@H](C(C)(C)O)C4)cccc1-n1c(=O)c2cccc(F)c2n(C)c1=O has a documented half-life of 10.7

* * *

- test.details: Plasma pharmacokinetics of BMS-986142, MAD
- Assay type: in vivo, human
- setup.conditions: human, plasma, oral; MAD day 14, 350 mg QD, n = 6; read-out: Cmin geometric mean (%CV)
value.kind: concentration at 14 day (ng/mL)
The answer is to be given in ng/mL; state only the numeric part.

In plain terms, Cc1c(-c2c(F)cc(C(N)=O)c3[nH]c4c(c23)CC[C@H](C(C)(C)O)C4)cccc1-n1c(=O)c2cccc(F)c2n(C)c1=O has a documented concentration at 14 day of 166

* * *

- test.details: Plasma pharmacokinetics of BMS-986142, SAD
- Assay type: in vivo
- setup.conditions: human, oral, SAD day 1, 900 mg, n = 6, read-out: AUC(0-T) geometric mean (%CV)
value.kind: AUC(0-t)
Form field: result (number plus unit)

In plain terms, Cc1c(-c2c(F)cc(C(N)=O)c3[nH]c4c(c23)CC[C@H](C(C)(C)O)C4)cccc1-n1c(=O)c2cccc(F)c2n(C)c1=O [BMS-986142] has a documented AUC(0-t) of 28000 ng·h/mL

* * *

- test.details: Plasma pharmacokinetics of BMS-986142, MAD
- Type: in vivo, human
- setup.conditions: both sexes, human, plasma, oral; MAD day 14, 25 mg QD, n = 6; read-out: Cmax geometric mean (%CV)
value.kind: Cmax (ng/mL)
The answer is to be given in ng/mL; state only the numeric part.

In plain terms, Cc1c(-c2c(F)cc(C(N)=O)c3[nH]c4c(c23)CC[C@H](C(C)(C)O)C4)cccc1-n1c(=O)c2cccc(F)c2n(C)c1=O [BMS-986142] has a documented Cmax of 56

* * *

- test.details: Plasma pharmacokinetics of BMS-986142, SAD
- Format: in vivo
- setup.conditions: human, oral, SAD day 1, 50 mg, n = 6, read-out: AUC(0-T) geometric mean (%CV)
value.kind: AUC(0-t) (ng·h/mL)
The answer is to be given in ng·h/mL; state only the numeric part.

In plain terms, Cc1c(-c2c(F)cc(C(N)=O)c3[nH]c4c(c23)CC[C@H](C(C)(C)O)C4)cccc1-n1c(=O)c2cccc(F)c2n(C)c1=O [BMS-986142] has a documented AUC(0-t) of 1560

* * *

- test.details: Plasma pharmacokinetics of BMS-986142, SAD
- Assay type: in vivo
- setup.conditions: human, oral, SAD day 1, 900 mg, n = 6, read-out: Tmax median (min, max)
value.kind: Tmax (h)
The answer is to be given in h; state only the numeric part.

In plain terms, Cc1c(-c2c(F)cc(C(N)=O)c3[nH]c4c(c23)CC[C@H](C(C)(C)O)C4)cccc1-n1c(=O)c2cccc(F)c2n(C)c1=O [BMS-986142] has a documented Tmax of 2

// data source = paper PMC5423977
